Give measured IC50 for each item. Keep answers brief.
System: HBV (extracellular HBsAg) in PHH
Assay: Cryopreserved primary human hepatocytes (PHH) HBV infection assay, extracellular HBsAg (CLIA)
Format: cell-based
Details: Hepatitis B virus, Hepatocyte, 216 h, read-out: HBsAg IC50
Description: This assay is used to confirm the anti-HBV effect of the compounds in HBV PHH infection assay. […] At 9 days post-compound treatment, extracellular HBsAg level were measured with Chemiluminescence Immuno Assay (CLIA) kit (Autobio, HBsAg Quantitative CLIA). Extracellular HBV DNA was extracted by MagNA Pure 96 system (Roche) and then determined by quantitative PCR with the following primers and probe: […]
Just the number in µM, nothing appended.

Which IC50 is reported for this compound? "O=C1c2oc3c(Cl)cccc3c(=O)c2CN1c1ccc(Cl)cc1"
5.8

What do we get for "O=C1c2oc3c(Cl)cccc3c(=O)c2CCN1c1ccc(Cl)c(C(F)(F)F)c1" ?
3.44

Another compound to check: "O=C1c2oc3c(Cl)cccc3c(=O)c2CCN1c1ccccc1"
16.9

What do you get for "Cn1cc(N2CCc3c(oc4c(Cl)cccc4c3=O)C2=O)cn1" ?
10.5

Moving on to the next compound: "O=c1c2c(oc3c(Cl)cccc13)CN(c1ccc(C(F)(F)F)cc1)CC2"
5.65

// query: "O=C1c2oc3c(Cl)cccc3c(=O)c2CCN1c1ccc(Cl)c(Cl)c1"
0.57

What about this compound? "O=C1c2oc3c(Cl)cccc3c(=O)c2CCN1c1ccccc1OC(F)(F)F"
16.5

---

I'd be grateful if you could share measured pIC50 for these entries.
test system: HBV (extracellular HBsAg) in PHH; experiment: Cryopreserved primary human hepatocytes (PHH) HBV infection assay, extracellular HBsAg (CLIA); format: cell-based; settings: Hepatitis B virus, Hepatocyte, 216 h, read-out: HBsAg IC50
Here pIC50 is given on a logarithmic scale as minus log10 of the concentration in mol/L.

Would you mind telling me what pIC50 value was observed for "O=C1c2oc3c(Cl)cccc3c(=O)c2CCN1c1ccc(Cl)cc1" ?
5.56

Ok, now "CC(C)(C)OC(=O)N1CCc2c(oc3c(Cl)cccc3c2=O)C1"
4.97

Then "COc1cccc(N2CCc3c(oc4c(Cl)cccc4c3=O)C2)c1" ?
4.51

Another compound to check: O=C(O)C1CC(Oc2cc(Cl)ccc2N2CCc3c(oc4c(Cl)cccc4c3=O)C2=O)C1 (centres unmarked)
4.74

Lookup "O=C1c2oc3c(Cl)cccc3c(=O)c2CCN1c1ccc(Cl)cc1C(F)(F)F"
4.89
